# Measured on: UniProtKB P24723
# Sequence (P24723 whole entry, looked up): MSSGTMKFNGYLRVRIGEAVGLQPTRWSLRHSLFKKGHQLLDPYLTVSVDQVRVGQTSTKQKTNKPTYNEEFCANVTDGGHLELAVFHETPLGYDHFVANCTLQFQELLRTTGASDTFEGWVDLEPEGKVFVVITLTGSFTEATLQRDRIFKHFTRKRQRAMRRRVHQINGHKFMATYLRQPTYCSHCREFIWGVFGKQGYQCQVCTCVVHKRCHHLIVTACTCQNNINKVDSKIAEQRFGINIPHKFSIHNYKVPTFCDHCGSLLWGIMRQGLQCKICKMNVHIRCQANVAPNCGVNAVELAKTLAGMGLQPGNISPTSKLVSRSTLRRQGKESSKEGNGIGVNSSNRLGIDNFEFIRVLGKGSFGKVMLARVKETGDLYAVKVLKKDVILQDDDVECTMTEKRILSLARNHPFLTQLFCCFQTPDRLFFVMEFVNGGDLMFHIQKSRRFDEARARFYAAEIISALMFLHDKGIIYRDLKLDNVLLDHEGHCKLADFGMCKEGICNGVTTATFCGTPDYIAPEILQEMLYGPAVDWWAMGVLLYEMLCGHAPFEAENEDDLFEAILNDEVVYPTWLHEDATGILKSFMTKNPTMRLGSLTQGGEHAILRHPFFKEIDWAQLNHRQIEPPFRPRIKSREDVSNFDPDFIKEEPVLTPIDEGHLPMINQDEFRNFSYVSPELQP
# Test: KINOMEscan competition binding
# Conditions used: compound 10.0 µM
Attribute measured: kinase still bound, per cent of control (%)
Give bare numbers, in %.

>>> df
                            chemical_smiles  measured_value
0  Cn1cc(C2=C(c3ccc(Cl)cc3Cl)C(=O)NC2=O)c2ccccc21              79
1  O=C1Nc2cc(Br)ccc2/C1=C1/Nc2ccccc2/C1=N\O             100
2  Cc1cnc(-c2cnc(NCCNc3ccc(C#N)cn3)nc2-c2ccc(Cl)cc2Cl)[nH]1             100

Now for a further compound.
kinase still bound, per cent of control for COc1ccc(CNC(=O)Nc2ncc([N+](=O)[O-])s2)cc1 ?
100
